Experiment: NCI Yeast Anticancer Drug Screen. Data for the rad50 strain (AID 155);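 note: 0% = growth of vehicle-only cultures of the same strain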
Conditions: S. cerevisiae rad50 strain growth inhibition; at 50.0 µM
This is part of a sample that, as a whole, favours compounds with a hit. Of some 79,000 tested, about 15% had one in any assay. Active and inactive are the calls of the source. Cut-off read from the data, not from the text of the source: active = growth inhibition above about 70%; inactive = the rest.
Choose one outcome from this list and give only that: 1 for active, -1 for inactive

The following compounds have reported results that may help.
1) O=C(Nc1ccccc1F)C(Br)C(Br)c1ccccc1 (stereo not drawn)    1
2) COC(=O)/C=C1/Nc2ccc(Cl)cc2C(=O)NC1=O    -1
3) CN(C)c1ccc(/C=C(\C#N)c2c(F)cccc2F)cc1    -1
4) CC1C(c2ccc3c(c2)OCO3)c2cc3c(cc2OC1N1CCOCC1)OCO3 (stereo not drawn)    -1
5) O=C(O)CC(CCCc1ccccc1)C(=O)O (stereo not drawn)    -1
6) CCCCn1cnc2c(SCc3ccc(F)cc3)nc(N)nc21    -1
7) CCC(=O)c1ccc2ccc3ccccc3c2c1    -1
8) O=C(O)c1c2c(cc3c1CC1(Cc4cc5c(cc4C1=O)CCC5)C3)CCC2 (stereo not drawn)    1

*Q* Please let me know the test result on file for N#C/C(=C\c1c(Cl)cccc1Cl)c1nc2ccccc2[nH]1 .
*A* 1

*Q* Please let me know the test result on file for CC(N)C(O)c1ccc2ccc3ccccc3c2c1 (stereo not drawn) .
*A* -1

*Q* Please let me know the test result on file for S=c1nc(N2CCCCC2)ss1 .
*A* 1

*Q* Please let me know the test result on file for COc1cccc(N2C(=O)C3CC(CC(C)(C)C)c4c([nH]c5ccccc45)C3C2=O)c1 (stereo not drawn) .
*A* -1
